Values were extracted from PubChem BioAssay.

assay: modulators of S6 phosphorylation in cells, primary screen, cell-based, A549, cytoblot, luminescence, serum-stimulated (AID 1158); conditions: A549 phospho-S6 cytoblot, 5 h, higher = more signal;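 note: serum-stimulated A549 lung adenocarcinoma cells; signal is phosphorylated S6 detected by cytoblot immunostaining with HRP secondary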
Think of -0.02 as a floor: if z-score stands on it or above, it is YES; beneath it, NO.

{"compound": "CC(=O)NCCCC[C@@H]1NC(=O)[C@@H]2C[C@H](C(=O)NCCCCN(C)C)[C@H](c3cccc(OCCO)c3)N2C1=O", "group_label": "NO"}
{"compound": "COc1ccc(CCN2C(=O)[C@@]3(Cc4ccccc42)c2ccccc2C(=O)N(Cc2ccccc2C(F)(F)F)[C@H]3c2ccc(CO)cc2)cc1", "group_label": "YES"}
{"compound": "O=C1O[C@H](c2ccccc2)[C@H](c2ccccc2)N2[C@H]1[C@@H](C(=O)O)[C@]1(C(=O)Nc3ccc(C#CCCO)cc31)[C@H]2c1ccc(O)cc1", "group_label": "YES"}
{"compound": "Cc1ccc(S[C@]2(C(=O)NC3CC3)CC(=O)N(C3Cc4ccccc4C3)[C@@H]2c2ccc(CO)cc2)cc1", "group_label": "YES"}
{"compound": "C=CCN1C(=O)[C@]2(O[C@H](CCO)[C@@H]([Si](C)(C)c3ccc(OC)cc3)[C@@H]2C)c2cc(N3C(=O)c4cccc5cccc3c45)ccc21", "group_label": "YES"}
{"compound": "COCC(=C=CC[C@H](O)c1ccccc1OCCO)C[C@H](O)c1cc(Cl)cc(Cl)c1O", "group_label": "NO"}
{"compound": "C=CCOC(=O)[C@@H]1[C@H]2C(=O)O[C@H](c3ccccc3)[C@H](c3ccccc3)N2[C@H](c2ccc(OCCOC(=O)[C@@H]3C[C@@H]4C(=O)N[C@@H](Cc5ccccc5)C(=O)N4[C@@H]3c3ccc(O)cc3)cc2)[C@@]12C(=O)Nc1ccc(I)cc12", "group_label": "YES"}
{"compound": "C=CCC(OC(C)=O)[C@@H]1[C@@H](N(Cc2ccc(-c3cccc(C(F)(F)F)c3)o2)C(=O)Cc2ccc(F)cc2)c2cc(OCCCO)ccc2N1C(=O)Cc1ccc(OC)cc1 (some centres undefined)", "group_label": "YES"}
{"compound": "CCOC1=C2C(CN(S(=O)(=O)c3ccc(C)cc3)C2c2ccc(C)cc2)C2C(=O)N(c3ccccc3)C(=O)C2C1 (centres undefined)", "group_label": "NO"}
{"compound": "CCOC(=O)C1=CCC(c2ccc(C)cc2)N(S(=O)(=O)c2ccc(C)cc2)C1 (centres undefined)", "group_label": "NO"}
{"compound": "CN1C(=O)C2C=CC(C(O)C3CCCCC3)N(Nc3ccc([N+](=O)[O-])cc3[N+](=O)[O-])C2C1=O (centres undefined)", "group_label": "NO"}
{"compound": "CN1C(=O)C2C=CC(C(O)c3ccc(-c4ccccc4)s3)N(N(c3ccccc3)c3ccccc3)C2C1=O (centres undefined)", "group_label": "NO"}
{"compound": "Cc1ccc(S[C@]2(C(=O)NC(C)C)CC(=O)N(Cc3ccccc3Cl)[C@@H]2c2ccc(CO)cc2I)cc1", "group_label": "NO"}
{"compound": "COC(=O)C(CC#Cc1ccc2c(c1)[C@]1(C(=O)N2)[C@H](c2ccc(O)cc2)N2[C@H](c3ccccc3)[C@H](c3ccccc3)OC(=O)[C@H]2[C@@H]1C(=O)Nc1nc2ccccc2s1)C(=O)OC", "group_label": "YES"}
{"compound": "CC(=O)N1Cc2ccccc2C[C@@]2(COC(c3ccc(OCCCO)cc3)=N2)C1=O", "group_label": "YES"}
{"compound": "CN(C)C(=O)[C@@]1(Cc2ccccc2)N=C(c2ccc(OCCCO)cc2)O[C@H]1c1ccccc1N=[N+]=[N-]", "group_label": "YES"}
{"compound": "O=C1OCCC/C=C\\[C@H]2OC34C=CCN(CCN5CCOCC5)C(=O)[C@H]3N(CCCO)C(=O)[C@@H]4C12 (some centres undefined)", "group_label": "NO"}
{"compound": "CN(C)C(=O)[C@@]1(Cc2ccccc2CN=[N+]=[N-])N=C(c2ccc(OCCCO)cc2)O[C@H]1c1ccccc1", "group_label": "NO"}
{"compound": "CC(C)(C)OC(=O)CC[C@@]1(C(=O)NCCN2CCOCC2)N=C(c2ccc(OCCCO)cc2)O[C@@H]1c1ccccc1N=[N+]=[N-]", "group_label": "NO"}
{"compound": "O=C1C2C=CC(C(O)C(c3ccccc3)c3ccccc3)N(n3cnnc3)C2C(=O)N1Cc1ccccc1 (centres undefined)", "group_label": "NO"}
{"compound": "COCCn1c(C(=O)N2CCCC2)cc2c1C[C@H]1CN(C(=O)c3ccccc3)[C@@](Cc3ccc(F)cc3)(C(=O)OC)[C@@H]21", "group_label": "NO"}
{"compound": "C=C(CCCC)/C(=C/C[C@@H](OC(C)=O)c1ccccc1OCCO)c1cnc2ccccc2c1", "group_label": "YES"}
{"compound": "CC[C@@H]1C=C(C(=O)O)[C@H](c2ccco2)N1S(=O)(=O)c1ccc(C)cc1", "group_label": "YES"}
{"compound": "C=CCNC(=O)[C@H]1[C@@H]2C(=O)O[C@@H](c3ccccc3)[C@@H](c3ccccc3)N2[C@@H](c2ccc(O)cc2)[C@]12C(=O)N(C(=O)OCCOC)c1ccc(C#CCNC(N)=O)cc12", "group_label": "NO"}
{"compound": "COC(=O)C=C(CC(O)c1cccc(Cl)c1)OC (centres undefined)", "group_label": "YES"}
{"compound": "O=C(NCc1ccccc1)[C@@]1(Cc2ccccc2)N=C(c2ccc(OCCCO)cc2)O[C@H]1c1ccccc1", "group_label": "NO"}
{"compound": "CCOC(=O)C=Cc1cc([N+](=O)[O-])ccc1O", "group_label": "YES"}
{"compound": "COC(=O)[C@@]1(Cc2ccccc2)[C@H]2c3cc(C(=O)N(C)C)n(CCSCCO)c3C[C@H]2CN1C(=O)c1ccccc1", "group_label": "NO"}

---

target: NADPH oxidase 5 (Homo sapiens) (UniProt Q96PH1); experiment: NOX5-dependent H2O2 signal modulators, primary screen, NOX inhibitor project, cell-based, HEK293-NOX5, Amplex Red fluorescence (AID 1161); settings: HEK293-NOX5, ionomycin, 45 min, higher = more signal
Sequence (Q96PH1 whole entry, looked up): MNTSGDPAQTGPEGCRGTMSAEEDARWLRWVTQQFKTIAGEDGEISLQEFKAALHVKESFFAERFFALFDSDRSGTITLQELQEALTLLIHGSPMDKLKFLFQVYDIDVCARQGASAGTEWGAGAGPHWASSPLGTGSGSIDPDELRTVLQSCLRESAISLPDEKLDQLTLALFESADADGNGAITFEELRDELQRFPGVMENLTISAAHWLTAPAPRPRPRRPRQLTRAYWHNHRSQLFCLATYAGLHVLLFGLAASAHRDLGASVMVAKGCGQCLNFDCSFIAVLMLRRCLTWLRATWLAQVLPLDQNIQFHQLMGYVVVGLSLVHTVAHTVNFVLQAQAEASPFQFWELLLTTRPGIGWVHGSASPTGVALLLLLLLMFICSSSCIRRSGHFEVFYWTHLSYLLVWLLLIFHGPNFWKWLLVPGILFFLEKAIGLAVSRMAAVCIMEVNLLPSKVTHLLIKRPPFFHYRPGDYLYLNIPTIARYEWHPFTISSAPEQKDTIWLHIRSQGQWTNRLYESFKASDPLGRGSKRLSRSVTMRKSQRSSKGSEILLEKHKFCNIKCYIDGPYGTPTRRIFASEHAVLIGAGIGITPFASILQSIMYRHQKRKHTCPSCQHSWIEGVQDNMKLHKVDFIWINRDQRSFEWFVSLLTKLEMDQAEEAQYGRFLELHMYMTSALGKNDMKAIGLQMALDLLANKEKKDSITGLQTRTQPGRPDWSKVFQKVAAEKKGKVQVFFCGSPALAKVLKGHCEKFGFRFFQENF
Our labelling divides records by z-score into ranges: Low = under -0.9, Mid = from -0.9 up to 0.8, High = 0.8 and over

{"molecule": "C=CCOC(=O)[C@H]1[C@@H]2C(=O)O[C@@H](c3ccccc3)[C@@H](c3ccccc3)N2[C@@H](c2ccc(OCCOC(=O)[C@H]3C[C@H]4C(=O)N5CCC[C@H]5C(=O)N4[C@H]3c3ccc(O)cc3)cc2)[C@]12C(=O)Nc1ccccc12", "group_label": "High"}
{"molecule": "O=C1NCC(=O)N2[C@@H]1C[C@@H](C(=O)O)[C@H]2c1cccc(OCCO)c1", "group_label": "High"}
{"molecule": "N#Cc1ccc(NN2C(C(O)c3c(F)cccc3Cl)C=CC3C(=O)N(c4ccccc4)C(=O)C32)cc1 (centres undefined)", "group_label": "Low"}
{"molecule": "Cc1ccc(S[C@]2(C(=O)NC(C)C)CC(=O)N(Cc3ccccc3Cl)[C@@H]2c2ccc(CO)cc2I)cc1", "group_label": "Mid"}
{"molecule": "COc1ccc([Si](C)(C)[C@H]2[C@H](CC(=O)N3Cc4ccccc4C[C@H]3CO)O[C@@]3(C(=O)N(Cc4ccc(N5CCC5=O)cc4)c4ccccc43)[C@@H]2C)cc1", "group_label": "Low"}
{"molecule": "O=C1O[C@H](c2ccccc2)[C@H](c2ccccc2)N2[C@H]1[C@@H](C(=O)N1CCN(c3ncccn3)CC1)[C@]1(C(=O)Nc3ccc(C#CC4=CCCCC4)cc31)[C@H]2c1ccc(O)cc1", "group_label": "High"}
{"molecule": "Cc1ccc(S[C@]2(C(=O)NCC(C)C)CC(=O)N(Cc3cc(C(F)(F)F)cc(C(F)(F)F)c3)[C@@H]2c2ccc(CO)cc2I)cc1", "group_label": "Low"}
{"molecule": "O=C1NC(=O)C2C1C=CC(C(O)c1cccc3ccccc13)N2Nc1ccccn1 (centres undefined)", "group_label": "Low"}
{"molecule": "CO[C@H]1O[C@H](CO)[C@@H](OC(=O)Nc2ccc(Br)cc2)[C@H](OC(=O)c2cc3ccccc3[nH]2)[C@H]1OC(=O)c1cc2ccccc2[nH]1", "group_label": "Low"}
{"molecule": "C[C@]1(C(=O)NC2CC2)c2ccccc2C(=O)N(Cc2cc(C(F)(F)F)cc(C(F)(F)F)c2)[C@H]1c1ccc(CO)cc1", "group_label": "High"}
{"molecule": "NCCCCCNC(=O)[C@@H]1C[C@@H]2C(=O)N[C@@H](Cc3ccccc3)C(=O)N2[C@@H]1c1cccc(OCCO)c1", "group_label": "High"}
{"molecule": "C=CC[C@@]1(C(N)=O)N=C(c2ccc(OCCCO)cc2)O[C@@H]1c1ccccc1CN=[N+]=[N-]", "group_label": "Mid"}
